Reference for the values: patent US12404262B2

For each record, write down the corresponding pH 2 solubility.
- experimental.context: 0.1N HCl, 1.0% DMSO, 24-hour incubation at ambient temperature, maximum theoretical 100 μM; first value of the cell
Give just the number in μM; leave the unit off.

Answer with the recorded pH 2 solubility of CN(CCOC(=O)N(c1nn(CC(F)(F)F)c2c(-c3ccc(C#CC(C)(C)S(C)(=O)=O)nc3[C@H](Cc3cc(F)cc(F)c3)NC(=O)Cn3nc(C(F)(F)F)c4c3C(F)(F)[C@@H]3C[C@H]43)ccc(Cl)c12)S(C)(=O)=O)C(=O)OCOP(=O)(O)O only.
1

Answer with the recorded pH 2 solubility of CC(C)(C#Cc1ccc(-c2ccc(Cl)c3c(N(C(=O)OCCOCCOCCOP(=O)(O)O)S(C)(=O)=O)nn(CC(F)(F)F)c23)c([C@H](Cc2cc(F)cc(F)c2)NC(=O)Cn2nc(C(F)(F)F)c3c2C(F)(F)[C@@H]2C[C@H]32)n1)S(C)(=O)=O only.
1

###

- experimental.context: 1×PBS buffer (pH 7.4), 1.0% DMSO, 24-hour incubation at ambient temperature, maximum theoretical 100 μM; second value of the cell
parameter: pH 7 solubility

Answer with the recorded pH 7 solubility of CC(C)(C#Cc1ccc(-c2ccc(Cl)c3c(N(C(=O)OCCCS(=O)(=O)O)S(C)(=O)=O)nn(CC(F)(F)F)c23)c([C@H](Cc2cc(F)cc(F)c2)NC(=O)Cn2nc(C(F)(F)F)c3c2C(F)(F)[C@@H]2C[C@H]32)n1)S(C)(=O)=O [Compound 111] only.
42 μM

Answer with the recorded pH 7 solubility of CC(C)(C#Cc1ccc(-c2ccc(Cl)c3c(N(C(=O)OCCCC(=O)O)S(C)(=O)=O)nn(CC(F)(F)F)c23)c([C@H](Cc2cc(F)cc(F)c2)NC(=O)Cn2nc(C(F)(F)F)c3c2C(F)(F)[C@@H]2C[C@H]32)n1)S(C)(=O)=O [Compound 113] only.
5 μM

###

- experimental.context: 0.1N HCl, 1.0% DMSO, 24-hour incubation at ambient temperature, maximum theoretical 100 μM; first value of the cell
For each record, write down the corresponding pH 2 solubility.

Answer with the recorded pH 2 solubility of CC(C)(C#Cc1ccc(-c2ccc(Cl)c3c(N(C(=O)NCCN4CCN(C(=N)N)CC4)S(C)(=O)=O)nn(CC(F)(F)F)c23)c([C@H](Cc2cc(F)cc(F)c2)NC(=O)Cn2nc(C(F)(F)F)c3c2C(F)(F)[C@@H]2C[C@H]32)n1)S(C)(=O)=O only.
72 μM

Answer with the recorded pH 2 solubility of CC(C)(C#Cc1ccc(-c2ccc(Cl)c3c(N(C(=O)OCCCCCO)S(C)(=O)=O)nn(CC(F)(F)F)c23)c([C@H](Cc2cc(F)cc(F)c2)NC(=O)Cn2nc(C(F)(F)F)c3c2C(F)(F)[C@@H]2C[C@H]32)n1)S(C)(=O)=O only.
1/1 μM

Answer with the recorded pH 2 solubility of C[C@H](OC(=O)N(c1nn(CC(F)(F)F)c2c(-c3ccc(C#CC(C)(C)S(C)(=O)=O)nc3[C@H](Cc3cc(F)cc(F)c3)NC(=O)Cn3nc(C(F)(F)F)c4c3C(F)(F)[C@@H]3C[C@H]43)ccc(Cl)c12)S(C)(=O)=O)[C@H](C)OP(=O)(O)O only.
1 μM

Answer with the recorded pH 2 solubility of CC(C)(C#Cc1ccc(-c2ccc(Cl)c3c(N(C(=O)OCCCP(=O)(O)O)S(C)(=O)=O)nn(CC(F)(F)F)c23)c([C@H](Cc2cc(F)cc(F)c2)NC(=O)Cn2nc(C(F)(F)F)c3c2C(F)(F)[C@@H]2C[C@H]32)n1)S(C)(=O)=O only.
1 μM

Answer with the recorded pH 2 solubility of CC(C)(C)C(=O)OCN(c1nn(CC(F)(F)F)c2c(-c3ccc(C#CC(C)(C)S(C)(=O)=O)nc3[C@H](Cc3cc(F)cc(F)c3)NC(=O)Cn3nc(C(F)(F)F)c4c3C(F)(F)[C@@H]3C[C@H]43)ccc(Cl)c12)S(C)(=O)=O only.
1/1 μM

Answer with the recorded pH 2 solubility of CN(C(=O)N(c1nn(CC(F)(F)F)c2c(-c3ccc(C#CC(C)(C)S(C)(=O)=O)nc3[C@H](Cc3cc(F)cc(F)c3)NC(=O)Cn3nc(C(F)(F)F)c4c3C(F)(F)[C@@H]3C[C@H]43)ccc(Cl)c12)S(C)(=O)=O)[C@@H](CCC(=O)O)C(=O)OCOP(=O)(O)O only.
1 μM

Answer with the recorded pH 2 solubility of CC(C)(C#Cc1ccc(-c2ccc(Cl)c3c(N(COC(=O)C(=O)O)S(C)(=O)=O)nn(CC(F)(F)F)c23)c([C@H](Cc2cc(F)cc(F)c2)NC(=O)Cn2nc(C(F)(F)F)c3c2C(F)(F)[C@@H]2C[C@H]32)n1)S(C)(=O)=O only.
13 μM

Answer with the recorded pH 2 solubility of COC(=O)C(=O)N(c1nn(CC(F)(F)F)c2c(-c3ccc(C#CC(C)(C)S(C)(=O)=O)nc3[C@H](Cc3cc(F)cc(F)c3)NC(=O)Cn3nc(C(F)(F)F)c4c3C(F)(F)[C@@H]3C[C@H]43)ccc(Cl)c12)S(C)(=O)=O only.
1/1 μM

###

For each record, write down the corresponding pH 7 solubility.
- experimental.context: 1×PBS buffer (pH 7.4), 1.0% DMSO, 24-hour incubation at ambient temperature, maximum theoretical 100 μM; second value of the cell
Mention the unit after the number when you answer.

Answer with the recorded pH 7 solubility of C[C@@H](O)[C@H](NC(=O)N(c1nn(CC(F)(F)F)c2c(-c3ccc(C#CC(C)(C)S(C)(=O)=O)nc3[C@H](Cc3cc(F)cc(F)c3)NC(=O)Cn3nc(C(F)(F)F)c4c3C(F)(F)[C@@H]3C[C@H]43)ccc(Cl)c12)S(C)(=O)=O)C(=O)O only.
9 μM

Answer with the recorded pH 7 solubility of CC(C)(C#Cc1ccc(-c2ccc(Cl)c3c(N(C(=O)N(CCNC(=O)OCOP(=O)(O)O)CCC(=O)O)S(C)(=O)=O)nn(CC(F)(F)F)c23)c([C@H](Cc2cc(F)cc(F)c2)NC(=O)Cn2nc(C(F)(F)F)c3c2C(F)(F)[C@@H]2C[C@H]32)n1)S(C)(=O)=O only.
100 μM

Answer with the recorded pH 7 solubility of CC(C)(C#Cc1ccc(-c2ccc(Cl)c3c(N(C(=O)OCCOCCOCCOCCOP(=O)(O)O)S(C)(=O)=O)nn(CC(F)(F)F)c23)c([C@H](Cc2cc(F)cc(F)c2)NC(=O)Cn2nc(C(F)(F)F)c3c2C(F)(F)[C@@H]2C[C@H]32)n1)S(C)(=O)=O only.
100 μM

Answer with the recorded pH 7 solubility of CC(C)(C#Cc1ccc(-c2ccc(Cl)c3c(NS(C)(=O)=O)nn(CC(F)(F)F)c23)c([C@H](Cc2cc(F)cc(F)c2)NC(=O)Cn2nc(C(F)(F)F)c3c2C(F)(F)[C@@H]2C[C@H]32)n1)S(C)(=O)=O [Intermediate 5, reference compound] only.
0.32 μM

###

- experimental.context: 0.1N HCl, 1.0% DMSO, 24-hour incubation at ambient temperature, maximum theoretical 100 μM; first value of the cell
parameter: pH 2 solubility (μM)
Give just the number in μM; leave the unit off.

Answer with the recorded pH 2 solubility of C[C@H](O)[C@H](C)OC(=O)N(c1nn(CC(F)(F)F)c2c(-c3ccc(C#CC(C)(C)S(C)(=O)=O)nc3[C@H](Cc3cc(F)cc(F)c3)NC(=O)Cn3nc(C(F)(F)F)c4c3C(F)(F)[C@@H]3C[C@H]43)ccc(Cl)c12)S(C)(=O)=O only.
1

Answer with the recorded pH 2 solubility of CC(C)(C#Cc1ccc(-c2ccc(Cl)c3c(N(C(=O)NCCP(=O)(O)O)S(C)(=O)=O)nn(CC(F)(F)F)c23)c([C@H](Cc2cc(F)cc(F)c2)NC(=O)Cn2nc(C(F)(F)F)c3c2C(F)(F)[C@@H]2C[C@H]32)n1)S(C)(=O)=O only.
1

Answer with the recorded pH 2 solubility of CC(C)(C#Cc1ccc(-c2ccc(Cl)c3c(N(C(=O)OCCCCOP(=O)(O)O)S(C)(=O)=O)nn(CC(F)(F)F)c23)c([C@H](Cc2cc(F)cc(F)c2)NC(=O)Cn2nc(C(F)(F)F)c3c2C(F)(F)[C@@H]2C[C@H]32)n1)S(C)(=O)=O only.
1

Answer with the recorded pH 2 solubility of CC(C)(C#Cc1ccc(-c2ccc(Cl)c3c(N(C(=O)NC(COP(=O)(O)O)COP(=O)(O)O)S(C)(=O)=O)nn(CC(F)(F)F)c23)c([C@H](Cc2cc(F)cc(F)c2)NC(=O)Cn2nc(C(F)(F)F)c3c2C(F)(F)[C@@H]2C[C@H]32)n1)S(C)(=O)=O only.
10

Answer with the recorded pH 2 solubility of CC(C)(C#Cc1ccc(-c2ccc(Cl)c3c(N(C(=O)OCCCN)S(C)(=O)=O)nn(CC(F)(F)F)c23)c([C@H](Cc2cc(F)cc(F)c2)NC(=O)Cn2nc(C(F)(F)F)c3c2C(F)(F)[C@@H]2C[C@H]32)n1)S(C)(=O)=O only.
54

Answer with the recorded pH 2 solubility of CC(C)(C#Cc1ccc(-c2ccc(Cl)c3c(N(CCOP(=O)(O)O)S(C)(=O)=O)nn(CC(F)(F)F)c23)c([C@H](Cc2cc(F)cc(F)c2)NC(=O)Cn2nc(C(F)(F)F)c3c2C(F)(F)[C@@H]2C[C@H]32)n1)S(C)(=O)=O only.
1

Answer with the recorded pH 2 solubility of C[C@@H](OP(=O)(O)O)[C@H](NC(=O)N(c1nn(CC(F)(F)F)c2c(-c3ccc(C#CC(C)(C)S(C)(=O)=O)nc3[C@H](Cc3cc(F)cc(F)c3)NC(=O)Cn3nc(C(F)(F)F)c4c3C(F)(F)[C@@H]3C[C@H]43)ccc(Cl)c12)S(C)(=O)=O)C(=O)O only.
4

Answer with the recorded pH 2 solubility of CC(C)(C#Cc1ccc(-c2ccc(Cl)c3c(N(C(=O)OCCN(CC(=O)O)C(=O)OCOP(=O)(O)O)S(C)(=O)=O)nn(CC(F)(F)F)c23)c([C@H](Cc2cc(F)cc(F)c2)NC(=O)Cn2nc(C(F)(F)F)c3c2C(F)(F)[C@@H]2C[C@H]32)n1)S(C)(=O)=O only.
1
